The values you see were collected from PubChem BioAssay (NCI).

Quick reference for TGI among some compounds
- Tested on: HT29 colon
- testSummary: NCI tumour cell line growth inhibition, 48 h

Observe how each entry below is paired with its result.
For this compound ( CC1=CC(C)C/C=C/C2C3OC3(C)C(C)C3C(Cc4c[nH]c5ccccc45)NC(=O)C23C(=O)C=CC(=O)C1O (stereo unspecified) ), measured TGI is 6.66 µM

Reported TGI ( "CN(C)c1nc2ccccc2[nH]1" ) = > 100 µM

Continuing:
# compound "CCCN=C(N)NC#N" ; its TGI = > 100 µM

# compound "O=C(C=P(c1ccccc1)(c1ccccc1)c1ccccc1)c1ccc(-c2cccc([N+](=O)[O-])c2)s1" ; its TGI = > 100 µM

Sure, the documented TGI for "O=C1NC(=O)C(c2cnc3ccccn23)=C1c1cn2c3c(cc(F)cc13)CN(C(=O)N1CCCCC1)CC2" is 20 µM

Record COCC1OC(Sc2ccccc2)C(O)C(OC)C1OC (stereo unspecified) , field TGI: > 100 µM

###

Reported values of TGI for individual entries
- System: COLO 205 colon
- testSummary: NCI tumour cell line growth inhibition, 48 h

Reported TGI of "COc1cc(N(CCC#N)CCC#N)ccc1/C(N=Nc1ccc([N+](=O)[O-])cc1)=N/NC(=O)c1cc(Br)ccc1O" : 45.9 µg/mL

TGI reading for "COc1cc(C(=O)n2c3ccc(Br)cc3c3nc4ccccc4nc32)cc(OC)c1OC" : > 100 µM

The compound listed as "Nc1ccc(-c2nc3cc(F)ccc3s2)cc1Cl" shows TGI equal to > 100 µM

So for NC1CC(=O)c2c(Br)csc21 (centres undefined) , the logged TGI turned out to be > 100 µM

# compound OC1[C@@H]2[C@@H](O)[C@H](O)[C@@H](O)N2C[C@@H]1O (some centres undefined) ; its TGI = > 100 µM

// sample "CC(=O)c1cccc(NC(=O)C(=O)NNc2n[nH]c(=S)n2N)c1" , its TGI was 27.9 µM

Further cases:
Form field TGI, entry "CN(C)c1nc2ccccc2[nH]1" : > 100 µM

Measured TGI of O=C(OC(CNc1cc(=O)n(Cc2ccccc2)c(=O)n1Cc1ccccc1)CN1CCCC1)c1ccccc1 (centres undefined) : > 100 µM

For COc1ccc(C2C(Cl)C(=O)N2n2cnc3ccccc3c2=O)cc1 (centres undefined) the compound record lists TGI as > 100 µM

###

- Test system: A549 NSCLC
- testSummary: NCI tumour cell line growth inhibition, 48 h
Reported values of GI50 for individual entries

The examples below pair each entry with its known result.
Sure, the documented GI50 for "CCn1c(-c2nonc2N)nc2c(C#CC(C)(C)O)nc(OC[C@H](N)c3ccccc3)cc21" is 3.69 µM

Documented GI50 of "Clc1nc2ccccc2nc1CI" : 19.2 µM

Noted for "C=C(CNCc1ccccc1)c1ccc(C(=O)Nc2ccccc2N)cc1" : its GI50 reads 7.34 µM

Noted for COc1ccc(C(C)=O)cc1N1C(=O)C2C(C1=O)C1(c3ccccc3)C(=O)C2(c2ccccc2)C(c2ccc(C)cc2)=C1c1ccc(C)cc1 (stereo not given) : its GI50 reads > 100 µM

Please turn your attention to the following entry.
Field GI50 (entry Cn1nc(N)c2cc([C@@H]3Nc4ccc5[nH]ncc5c4[C@H]4C5CCC(C5)[C@@H]34)ccc21 (stereo not given in full) ) reads 0.699 µM

###

- Test system: BT-549 breast
- testSummary: NCI tumour cell line growth inhibition, 48 h
assayMetric: TGI (µM)
Lab book: enter the figure in µM, no units written.

See these solved cases before continuing.
The compound listed as "N#CC(=C1C=CC(=NO)C=C1)c1ccccc1" shows TGI equal to 11.6

Recorded TGI (compound CCCCCCCCCC1(N=[N+]=[N-])C(=O)c2ccccc2N(C)C1=O (stereo unspecified) ): 74.6

Reported TGI ( COc1cc(C2CC(c3cccc(Br)c3)=NN2C(C)=O)cc(OC)c1OC (stereo unspecified) ) = 40.7

Input "O=C(CNc1ccc(Cl)cc1)Nc1ccc(-c2nc3ccccc3s2)cc1" . Output TGI: 4.7

Shift focus to the following entry.
The recorded TGI for entry "CC(=O)c1cccc(NC(=O)C(=O)NNc2n[nH]c(=S)n2N)c1" equals 6.65

###

Listed here: items and their measured TGI.
- Tested on: SN12C renal
- testSummary: NCI tumour cell line growth inhibition, 48 h

For reference, reported TGI for "CC1(C)CC(=O)c2[nH]c3ccccc3c2CC(=O)NCCc2cn1cn2" stands at > 100 µM

Per the record, CC(C)=CCNc1ncnc2c1ncn2C1OC(CO)C(O)C1O (stereo not given) has TGI of > 408 µM

The reported value for CCC(C)n1ncn(-c2ccc(N3CCN(c4ccc(OCC5COC(Cn6cncn6)(c6ccc(Cl)cc6Cl)O5)cc4)CC3)cc2)c1=O (stereo not given) in terms of TGI is > 100 µM

Turning to the following molecule.
Consider "CCCCCCNC(=O)c1cc(NCc2cc(O)ccc2O)ccc1O" . Its measured TGI is 17.4 µM

###

- Test system: NCI-H23 lung
- testSummary: NCI tumour cell line growth inhibition, 48 h
Some molecules, each annotated with its measured TGI.

Some solved entries appear below for comparison.
Per the reported NCI-H23 lung data, Cc1ccc(NC(=O)C(=O)C(C(=O)c2ccc3ccccc3c2)C2OC(=O)c3ccccc32)cc1C (stereo not drawn) has TGI of 18 µM

Value (TGI, NCI-H23 lung) for record "COc1ccc(-n2cc(-c3cc(OC)c(OC)c(OC)c3)c(C(=O)C(F)(F)F)c2C)cc1" = > 100 µM

// assay NCI-H23 lung, entry "O=C(Cc1ccc(/C=C/C(=O)c2ncc[nH]2)cc1)Nc1cc(F)c(F)c(F)c1" , TGI value = 9.11 µM

# TGI measured on NCI-H23 lung for item "Cc1c([N+](=O)[O-])ccc2c(NCCCN(C)C)ccnc12" = 34.6 µM

NCI-H23 lung TGI of COc1cc(C2SCC(=O)N2c2ccccn2)cc(OC)c1OC (stereo not drawn) is > 100 µM

Further cases:
I looked up "Cc1ccc(Cc2c(=O)[nH]nc3ccccc23)cc1" and its TGI for NCI-H23 lung was > 100 µM

Record "CCOc1ccccc1C=C1c2ccccc2C(=O)c2ccccc21" has NCI-H23 lung TGI equal to > 100 µM

Field TGI (system: NCI-H23 lung) for entry "Nc1ncnc2c1ccn2C/C=C\CO" = > 100 µM

###

- Tested on: SW-620 colon
- testSummary: NCI tumour cell line growth inhibition, 48 h
assayMetric: TGI

Consider the reported TGI for these compounds:
Query "CCOC(=O)CCCn1c(SC)nc2[nH]cc(-c3ccccc3)c2c1=O" yields TGI of 78.6 µM

GET /value?item= "CC(C)C(=O)[C@@]1(C)SC[C@H]2CCN=C21" &field=TGI returns > 100 µM

// sample "Cn1cc(CO)c2c1C(=O)C=C(N1CC1)C2=O" , its TGI was > 31.6 µM

compound O=C(NCC(=O)N1CCCC1C(=O)OC(=O)C1CCCN1C(=O)CNC(=O)OCc1ccccc1)OCc1ccccc1 (stereo unspecified) , TGI observed: > 100 µM

Entry "O=c1cc(N2CCOCC2)[nH]c(=O)n1-c1ccc(F)cc1" , TGI reported as > 100 µM

Now look at this one.
Looking up "CCCCC1=NNC(=O)C1" , I found its TGI recorded as > 100 µM

###

- System: HCT-15 colon
- testSummary: NCI tumour cell line growth inhibition, 48 h
assayMetric: TGI

Some compounds with recorded TGI:
Record O=C(O)C1C2C=CC(O2)C1C(=O)NCc1ccccn1 (stereo not given) , field TGI: > 100 µM

TGI measured on "CCOc1cc2c(OCc3ccccc3)cc3c4cc(OC)c(OC)cc4c[n+](C)c3c2cc1OC" = > 100 µM

The compound OCCCCCCCCCCCOc1ccc(C2OCC3(CO2)COC(c2ccc(OCCCCCCCCCCCO)cc2)OC3)cc1 (stereo not given) showed TGI equal to > 50 µM

Documented TGI of "CCc1cc2c(oc3cc4ccccc4cc32)c(=O)[nH]1" : > 10 µM

Recorded TGI (compound COC(=O)C1=C(O)c2cc(OC)c(OC)cc2C(c2ccc(OC)c(OC)c2)C1 (stereo not given) ): > 100 µM

# TGI of "COC(=O)c1cc2c(s1)C(=O)c1ccccc1-2" = > 100 µM

For record CCCCCCCCCCCCOC1C(C(COC2OC(C3COC(C)(C)O3)C3OC(C)(C)OC23)NC(=O)Nc2ccc(C(=O)O)cc2)OC2OC(C)(C)OC21 (stereo not given) the listed TGI is 6.7 µM

# TGI (compound: CC(C)(Br)C(Br)CCC1(C2CO2)CO1 (stereo not given) ) is > 5 µM

***
Record "Cc1ccc(C)c(C2=C(c3cn(C)c4ccccc34)C(=O)NC2=O)c1" . Reported TGI: > 25 µM

The compound listed as CCOC(=O)C1(C#N)C(c2ccccc2)CC(O)(c2ccc(OC)cc2)C(C(=O)c2ccc(OC)cc2)C1c1ccccc1 (stereo not given) has a reported TGI of > 100 µM
